Reported koff values for a set of binders
- tested_on: cyPD1 (cynomolgus monkey)
- assay_overview: biosensor kinetics (BLI type); antibody captured on anti-human Fc biosensor, PD-1 in solution
Could you give me the number in s⁻¹? Just the number is fine.

Consider the worked cases shown below.
binder | koff (s⁻¹)
TA275 (antibody, V domains shown, Fc SEQ 587, CL SEQ 416) VH: QVTLKESGPGILQPSQTLSLTCSFSGFSLSTFGMGVGWIRQPSGKGLEWLAHIWWDDDKYYNPALKSRLTISKDTSKNQVFLKIANVDTADTATYYCARIPTRYWYFDVWGTGTTVTVSS VL: QAVVTQESALTTSPGETVTLTCRSSTGAVTTSNYANWVQEKPDHLFTGLIGGTNNRAPGVPARFSGSLIGDKAALTITGAQTEDEAIYFCALWYSTHYVFGGGTKVTVL | 0.2
TA132 (antibody, V domains shown, Fc SEQ 587, CL SEQ 416) VH: EVQLLESGGAFVQPGGSLRLSCAASGFTFSDYYMSWVRQAPGKGLEWVSVISNSGGSTYYTDSVKGRFTISRDNSKNTLYLQINSLRAEDTAVYYCTKDIGMTYFDYWGQGTLVTVSS VL: QSVLTQPPSASGAPGQRVTISCSGSYSNIGNSYVSWYQQLPGTAPKLLIYLNSQRPSGVPDRFSGSKSGTSASLAISGLQSEDEADYYCAAWDDLNVWVFGGGTKLTVL | 0.0137

From here, focus on the item given below.
Would you mind telling me what koff value was observed for TA289 (antibody, V domains shown, Fc SEQ 587, CL SEQ 416) VH: QVTLKESGPGILQPSQTLSLTCSFSGFSLSTFGMGVGWIRQPSGKGLEWLAHIWWDDDKYYNPALKSRLTISKDTSKNQVFLKIANVDTADTATYYCARIRGTWWYFDVWGTGTTVTVSS VL: QAVVTQESALTTSPGETVTLTCRSSTGAVTTSNYANWVQEKPDHLFTGLIGGTNNRAPGVPARFSGSLIGDKAALTITGAQTEDEAIYFCALWYSNQFIFGSGTKVTVL ?
2.1
